Values were extracted from PubChem BioAssay (NCATS).

Test: qHTS Screen of the MIPE 4.0 Collection Against Ewings Sarcoma (RDES) (AID 1259252); further: nearly all actives have a fitted effect of over 35% in size; further: potency means the concentration at half of the fitted maximal effect
Conditions: RD-ES Ewing sarcoma viability, CellTiter-Glo, 48 h; series mostly up to 45.8 µM
Method: There is a large unmet medical need for treatments for Ewing sarcoma, a pediatric sarcoma. […] Using the NCATS developed oncology compound library called the Mechanism of Interrogation Plate (MIPE), four Ewing sarcoma cell lines were evaluated (TC32, TC71, RDES, EW8). Compounds, in a 12-point titration series, were incubated with cells for 48 hours and the read out was cell viability (CellTiter-Glo from Promega). […]
Inconclusive results are not listed. The source made the active and inactive calls. The call rests on the fitted dose curve; in most records, active means well fitted inhibition curve with a large enough effect; inconclusive means small, poorly fitted or top-dose-only effect; inactive means no such curve, though single readings can be large or run the other way.
Parameter Measured: Potency

O=C(O)c1cccnc1 : inactive
NC1(c2ccc(-c3nc4ccn5c(=O)[nH]nc5c4cc3-c3ccccc3)cc2)CCC1 : 23.5 µM (active)
Cc1ccc(S(=O)(=O)N[C@@H](Cc2ccccc2)C(=O)CCl)cc1 : 26.4 µM (active)
CNC(=O)c1cc(Oc2ccc(NC(=O)Nc3ccc(Cl)c(C(F)(F)F)c3)cc2)ccn1 : 1.18 µM (active)

Challenge: Potency for Cn1nnc2c(C(N)=O)ncn2c1=O ?
Response given: inactive

Challenge: Potency for CC(=O)[C@H]1CC[C@H]2[C@@H]3CC=C4C[C@@H](O)CC[C@]4(C)[C@H]3CC[C@]12C ?
Response given: inactive

Challenge: Potency for O=P(O)(O)C(O)(Cc1cccnc1)P(=O)(O)O ?
Response given: inactive

Challenge: Potency for CNS(=O)(=O)CCc1ccc2[nH]cc(C3CCN(C)CC3)c2c1 ?
Response given: 0.372 µM (active)

Challenge: Potency for CC(C)C[C@H](NC(=O)[C@H](CCc1ccccc1)NC(=O)CN1CCOCC1)C(=O)N[C@@H](Cc1ccccc1)C(=O)N[C@@H](CC(C)C)C(=O)[C@@]1(C)CO1 ?
Response given: 0.0187 µM (active)

Challenge: Potency for CCCCCCNC(=O)n1cc(F)c(=O)[nH]c1=O ?
Response given: 13.2 µM (active)

Challenge: Potency for COc1ccccc1OCC(O)COC(N)=O (stereo unspecified) ?
Response given: inactive

###

test system: CP335; experiment: qHTS profiling for inhibitors of Plasmodium falciparum proliferation (AID 504749); further: nearly all actives have a fitted effect of over 60% in size; further: potency means the concentration at half of the fitted maximal effect; details: P. falciparum in erythrocytes, SYBR Green DNA, 72 h; series mostly up to 28.7 µM
Inconclusive results are not listed. Calls of active or inactive are those of the source. Calls come from the whole dose curve; as a rule, active = well fitted inhibition curve with a large enough effect; inconclusive = small, poorly fitted or top-dose-only effect; inactive = flat fitted curve, though single readings scatter.
Parameter Measured: Potency

O=NN(CCCl)C(=O)NC1CCCCC1 : inactive
S=P(N1CC1)(N1CC1)N1CC1 : inactive
Cc1noc(NS(=O)(=O)c2ccc(N)cc2)c1C : inactive
CCN(C)C(=O)Oc1cccc([C@H](C)N(C)C)c1 : inactive
CN1CCN(c2c(F)cc3c(=O)c(C(=O)O)cn(CCF)c3c2F)CC1 : inactive

Challenge: Potency for CCc1cc(C(N)=S)ccn1 ?
Response given: inactive

Challenge: Potency for Cc1ncc([N+](=O)[O-])n1CCO ?
Response given: inactive

Challenge: Potency for CCCCCCNC(=O)n1cc(F)c(=O)[nH]c1=O ?
Response given: 5.36 µM (active)

Challenge: Potency for COc1cc2c(Nc3ccc(Br)cc3F)ncnc2cc1OCC1CCN(C)CC1 ?
Response given: 4.26 µM (active)

###

assay: Quantitative High-Throughput drug screen in 47 multiple myeloma cell lines against the NCATS MIPE library collection: KMS20_JCRB cell viability assay (AID 1918973); settings: CellTiter-Glo ATP, 48 h; series mostly up to 45.8 µM; further: nearly all actives have a fitted effect of over 45% in size; further: potency means the concentration at half of the fitted maximal effect
Results filed as inconclusive are left out. The source made the active and inactive calls. Calls come from the whole dose curve; as a rule, active = well fitted cell-killing curve with a large enough effect; inconclusive = small, poorly fitted or top-dose-only effect, or effect the other way; inactive = no such curve, though single readings can be large or run the other way.
Parameter Measured: Potency

Worked examples, 8 compounds total:
NCCCC(O)(P(=O)(O)O)P(=O)(O)O : inactive
C[C@@H](NCCCc1cccc(C(F)(F)F)c1)c1cccc2ccccc12 : inactive
CCN[C@H]1C[C@H](C)S(=O)(=O)c2sc(S(N)(=O)=O)cc21 : inactive
Cc1cc(NS(=O)(=O)c2ccc(N)cc2)no1 : inactive
COc1ccc(C(=O)CC(=O)c2ccc(C(C)(C)C)cc2)cc1 : 2.96 µM (active)
CCCc1cc(C(N)=S)ccn1 : inactive
COc1nc(N)nc2c1ncn2[C@@H]1O[C@H](CO)[C@@H](O)[C@@H]1O : 23.5 µM (active)
N[C@@H](C(=O)N[C@@H]1C(=O)N2C(C(=O)O)=C(Cl)CS[C@H]12)c1ccccc1 : inactive

Challenge: Potency for Nc1ccc(S(=O)(=O)Nc2ccccn2)cc1 ?
Response given: inactive

Challenge: Potency for CNS(=O)(=O)Cc1ccc2[nH]cc(CCN(C)C)c2c1 ?
Response given: inactive

Challenge: Potency for CC(C)C1CCC(C(=O)N[C@H](Cc2ccccc2)C(=O)O)CC1 (some centres undefined) ?
Response given: inactive

Challenge: Potency for CNC1CCCN(c2c(F)cc3c(=O)c(C(=O)O)cn(C4CC4)c3c2OC)C1 (centres undefined) ?
Response given: inactive

Challenge: Potency for O=C(O)c1cn(C2CC2)c2cc(N3CCNCC3)c(F)cc2c1=O ?
Response given: inactive

Challenge: Potency for N[C@@H](Cc1ccc(O)c(O)c1)C(=O)O ?
Response given: inactive

Challenge: Potency for COc1cc(NCc2ccc3nc(N)nc(N)c3c2C)cc(OC)c1OC ?
Response given: 7.43 µM (active)

Challenge: Potency for COc1cc2nc(N3CCCN(C)CC3)nc(NC3CCN(Cc4ccccc4)CC3)c2cc1OC ?
Response given: 0.833 µM (active)

Challenge: Potency for O=C(O)c1cccnc1 ?
Response given: inactive

###

test: Quantitative High-Throughput drug screen in 47 multiple myeloma cell lines against the NCATS MIPE library collection: KMM1_JCRB cell viability assay (AID 1918960); conditions: KMM1 myeloma viability, CellTiter-Glo ATP luminescence, 48 h; series mostly up to 45.8 µM; further: nearly all actives have a fitted effect of over 30% in size
Inconclusive results are not listed. Activity calls are given as the source filed them. Calls follow the shape of the dose curve; as a rule, active = well fitted cell-killing curve with a large enough effect; inconclusive = small, poorly fitted or top-dose-only effect, or effect the other way; inactive = no such curve, though single readings can be large or run the other way.
Please answer using one outcome listed in active, inactive

Challenge: Give the logged outcome of this assay for the following molecule: CC(N)C12CC3CC(CC(C3)C1)C2 (configuration not stated)
Response given: inactive

Challenge: Give the logged outcome of this assay for the following molecule: CC(C)(C)C(=O)OCOP(=O)(COCCn1cnc2c(N)ncnc21)OCOC(=O)C(C)(C)C
Response given: active

Challenge: Give the logged outcome of this assay for the following molecule: COc1nc(N)nc2c1ncn2[C@@H]1O[C@H](CO)[C@@H](O)[C@@H]1O
Response given: inactive

Challenge: Give the logged outcome of this assay for the following molecule: CN(CCOc1ccc(CC2SC(=O)NC2=O)cc1)c1ccccn1 (configuration not stated)
Response given: inactive

Challenge: Give the logged outcome of this assay for the following molecule: CC1=C(C(=O)O)N2C(=O)[C@@H](NC(=O)C(N)c3ccccc3)[C@H]2SC1 (some centres not stated)
Response given: inactive

Challenge: Give the logged outcome of this assay for the following molecule: CCCCS(=N)(=O)CCC(N)C(=O)O (configuration not stated)
Response given: inactive

Challenge: Give the logged outcome of this assay for the following molecule: CCC(=O)O[C@]1(C(=O)SCF)[C@H](C)C[C@H]2[C@@H]3C[C@H](F)C4=CC(=O)C=C[C@]4(C)[C@@]3(F)[C@@H](O)C[C@@]21C
Response given: inactive

Challenge: Give the logged outcome of this assay for the following molecule: COc1cc2c(Nc3ccc(Br)cc3F)ncnc2cc1OCC1CCN(C)CC1
Response given: inactive

Challenge: Give the logged outcome of this assay for the following molecule: CCOC(=O)[C@H](CCc1ccccc1)N[C@H]1CS[C@H](c2cccs2)CN(CC(=O)O)C1=O
Response given: active

Challenge: Give the logged outcome of this assay for the following molecule: OCc1ccc(-c2nn(Cc3ccccc3)c3ccccc23)o1
Response given: inactive

Challenge: Give the logged outcome of this assay for the following molecule: Cc1cccc(Nc2ccncc2S(=O)(=O)NC(=O)NC(C)C)c1
Response given: inactive

Challenge: Give the logged outcome of this assay for the following molecule: Cc1ncc([N+](=O)[O-])n1CCO
Response given: inactive

###

test: Quantitative High-Throughput drug screen in 47 multiple myeloma cell lines against the NCATS MIPE library collection: ARD_JJKsccE7 cell viability assay (AID 1918929); conditions: ARD myeloma cell line viability, CellTiter-Glo, 48 h; series mostly up to 45.8 µM
Results filed as inconclusive are left out. Activity calls are given as the source filed them. Calls follow the shape of the dose curve; as a rule, active = well fitted cell-killing curve with a large enough effect; inconclusive = small, poorly fitted or top-dose-only effect, or effect the other way; inactive = no such curve, though single readings can be large or run the other way.
Please answer using one outcome listed in active, inactive

Challenge: Give the logged outcome of this assay for the following compound: Nc1nc(N)c2nc(CNc3ccc(C(=O)NC(CCC(=O)O)C(=O)O)cc3)cnc2n1 (stereo not given)
Response given: active

Challenge: Give the logged outcome of this assay for the following compound: COC(=O)Nc1nc2ccc(Sc3ccccc3)cc2[nH]1
Response given: active

Challenge: Give the logged outcome of this assay for the following compound: CCCCc1oc2ccc(NS(C)(=O)=O)cc2c1C(=O)c1ccc(OCCCN(CCCC)CCCC)cc1
Response given: active

Challenge: Give the logged outcome of this assay for the following compound: C#CCN[C@@H]1CCc2ccccc21
Response given: inactive

Challenge: Give the logged outcome of this assay for the following compound: NC(=O)c1cccnc1
Response given: inactive
